# normalized growth values compiled below
experiment: chemical genetic growth profiling, strain panel (AID 1159580);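 also: tested at 20 µM; growth read once vehicle control cultures reached saturation at 30 °C; 1 = growth at the plate median or of vehicle wells; lower values mean less growth of the strain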; details: S. cerevisiae deletion strains, growth OD, locus YPL209C, strain IPL1, hits give low values
About 2,000 (36%) of roughly 5,500 compounds were called active. Another 18% or so got no clear call; they are omitted. This is one part of the list.
Format: numeric value only, no unit, no commentary.

COc1ccc2c(c1)CCc1sc(NC(=O)c3ccco3)nc1-2	0.968
O=C(Nc1ccncc1)c1cc(-c2ccccc2)oc1C(F)(F)F	0.976
Clc1cc(Cl)cc(C=NCc2ccccc2)c1	0.957
O=S(=O)(NCc1ccc(C(F)(F)F)cc1)c1cccc(C(F)(F)F)c1	0.986
Cc1cccc(N=NC(C(=O)C(F)(F)F)=C(O)c2cccs2)c1	0.99

Look at this molecule and give its reported normalized growth. `FC(F)(F)c1cc(NC(=S)SCCSC(=S)Nc2cc(C(F)(F)F)cc(C(F)(F)F)c2)cc(C(F)(F)F)c1`
0.992

Again, but for `O=S(=O)(NCc1cc(Cl)cc(Cl)c1)c1cc(C(F)(F)F)cc(C(F)(F)F)c1`
0.997

Do the same for `CC1=CC(=O)N(c2ccc(F)c(Cl)c2)C1=O` please
0.964

Another molecule: CC1C(c2ccccc2)N(C)C(c2ccccc2)CC1(O)c1ccc(F)cc1 (stereo unspecified)
1

Then `C/C(=N/NC(=S)NCC(C)(C)C)c1cc(F)cc(Cl)c1O` ?
0.959

Here is the next molecule: CCOC(=O)c1sc(S(C)=NC(=O)Nc2ccc(Cl)cc2)c2c1CCC=C2 (stereo unspecified)
0.968

And `O=S(=O)(Nc1csc(C(F)(F)F)c1-c1ccccc1)c1cc(Br)c(Br)s1` ?
0.96

Cited source: PubChem BioAssay AID1159580
